Origin of measurements: patent US20240317871A1

# targetUnderTest: T1, human HVEM (human, UniProt Q92956 39-202, limits assumed); further: test concentration or dose not given here
# T1 sequence (looked up): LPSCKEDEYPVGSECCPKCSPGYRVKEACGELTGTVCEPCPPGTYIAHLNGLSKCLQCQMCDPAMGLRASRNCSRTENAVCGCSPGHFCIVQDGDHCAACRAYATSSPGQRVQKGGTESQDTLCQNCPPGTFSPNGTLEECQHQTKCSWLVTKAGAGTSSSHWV
# measurementNotes: ELISA
Simple rule here: ELISA signal less than 2 is y, otherwise n.

- binder: "Ab_058 (H5S19-6A8A) (antibody, V domains shown, also called Ab_58) VH: EVQLVESGGGLVKPGGSLKLSCAASGFTFNIYTMSWVRQSPEMRLEWVAEISSGGSHTYYPDTVTGRFTISRDNAKNTLYLEMSSLRSEDTAIYYCARGGSLFDYWGQGTTLTVSS VL: DVQITQSPSYLAASPGETITINCRTSKNISKYLAWYQEKPGKTNKLLIYSGSTLQSGIPSRFSGSGSGTDFTLTISSLEPEDFVMYHCQQHNEYPWTFGGGTKLEIK"
  classification: "n"
- binder: "Ab_082 (H5S20-55A36A) (antibody, V domains shown, also called Ab_82) VH: EVKLVESGGGLVQPGGSLKLSCAASGFTFSSYTMSWVRQTPEKRLEWVADISNGGGSTYYPDTVKGRFTISRDNAKNTLYLQMSSLKSEDTAMYYCARHRGYGNYVYAMDYWGQGTSVTVSS VL: DIVMTQSQKFMSTSVGDRVSVTCKASQNVGTNVAWYQQKPGQSPKALIYSASYRYSGVPDRFTGSGSGTDFTLTISNVQSEDLAEYFCQQYNSYPLTFGGGTKLEIK"
  classification: "y"
- binder: "Ab_024 (H5S15-1A1A) (antibody, V domains shown, also called Ab_24) VH: EVQLQQSGAELVKPGASVKLSCTASGFNIKDTYMHWVKQRPEQGLAWIGRIAPANGYTKYDPKFQGKATITTDTSSNTAYLHLSRLTSEDTAVYYCANYFGNTYDWFAFWGQGTLVTVSA VL: ENVLTQSPAIMSASPGEKVTMTCSAGSSVSYMHWYQQKSSTSPKLWIYDTSKLPSGVPGRFSGSGSGNSYSLTISSMEAEDVATYYCFQGSGFPLTFGSGTKLEIK"
  classification: "y"
- binder: "Ab_060 (H5S19-8A16A) (antibody, V domains shown, also called Ab_60) VH: QIQLVQSGPELKKPGETVKISCKASGYTFTNFGVNWVKQAPGKGLKWMGWINTYTGEPTYADDFKGRFAFSLETSASTAYLRINNLKNEDTASYFCARSYYANNAYWGQGTTLTVSS VL: QIVLTQSPAIMSASPGEKVTLTCSASSSVDSSYLYWFQQKPGSSPKLWIYGTSNLASGVPARFSGSGSGTSYSLTISSMEAEDAASYFCHQWNSYPWTFGGGTKLEIK"
  classification: "n"
- binder: "Ab_016 (H5S14-17A15A) (antibody, V domains shown, also called Ab_16) VH: QVQLQQSGAELVRPGTSVKMSCKAAGYTFTNYWIGWVKQRPGHGLEWIGDIYPGGGYTNYNEKFKGKATLTADTSSSTAYMQLSSLTSEDSAIYYCARNGNSLDYWGQGTTLTVSS VL: SIVMTQTPKFLLVSAGDRVTITCKASQSVSNDVAWYQQKPGQSPKLLIYYESNRYTGVPDRFTGSGYGTDFTFTISTVQAEDLAVYFCQQDYSSPWTFGGGTKLEIK"
  classification: "y"
- binder: "Ab_048 (H5S19-24A22A) (antibody, V domains shown, also called Ab_48) VH: QVQLQQSGGELLRPGTSVKVSCKASGYAFTNYLIEWVKQRPGQGLEWIGVINPGSGGIYYKEKFKDKAILTADKSSSTAYMQLSSLTSDDSAVYFCARGDAMDFWGQGTSVTVSS VL: DAVMTQTPLSLTVSLGDQASISCRSSQTLENTNGNTYLNWYLQKPGQSPQLLIYRVSNRFSGVLDRFSGSGSGTDFTLKISRVEAEDLGVYFCLQVTHVPYTFGGGTKLEIK"
  classification: "n"
- binder: "Ab_054 (H5S19-21A17C) (antibody, V domains shown, also called Ab_54) VH: QVQLKESGPGLVAPSQSLSITCTVSGFSLTSYGVHWVRQPPGKGLEWLGVIWAGGITNYNSALMSRLSISTDNSRSQVFLKMNSLQTDDTAMYYCARDWERDSSGPFPYWGQGTLVTVSA VL: DIQMTQTTSSLSASLGDRVTISCSASQGISNYLNWYQQKPDGTVKLLIYYTSSLHSGVPSRFSGSGSGTDYSLTISNLEPEDIATYFCQQYSKLPWTFGGGTKLEIK"
  classification: "n"
- binder: "Ab_059 (H5S19-3B10B) (antibody, V domains shown, also called Ab_59) VH: QIQLVQSGPELKKPGETVKISCKASGYTFTNFGVNWVKQAPGKGLKWMGWINTYTGEPTYADDFKGRFAFSLETSASTAYLRINNLKNEDTATYFCARSFYKNYAFWGQGTILTVSS VL: QIVLTQSPAIMSASPGEKVTLTCSASSSVDSSYLFWYQQKPGSSPKLWIYSTSNLASGVPARFSGSGSGTSYSLTISSMEAEDAASYFCHQWSSYPWTFGGGTILEI"
  classification: "y"
- binder: "Ab_036 (H5S15-12A13A) (antibody, V domains shown, also called Ab_36) VH: EVQLQQSGAELVKPGASVKLSCTASGFNIKDTYMHWVKQRPEQGLEWIGRIDPANGNTKFDPKFQGKATITADTSSNTAYLQLSSLTSEDTAVYYCASRGGSSFDYWGQGTTLTVSS VL: DIVLTQSPASLAVSLGQRATISCKASQSVDYDGESYMNWYQQKPGQPPKLLIYAASNLDSGIPARFSGSGSGTDFTLNIHPVEEEDAATYYCQQSNEDPLTFGAGTKLELK"
  classification: "n"
- binder: "Ab_039 (H5S15-21A19A) (antibody, V domains shown, also called Ab_39) VH: QIQLVQSGPDLKKPGETVKISCKASGYTFTNYGMNWVKQAPGKDLKWMGWINTYTGEPTYADDFKGRFAFSLETSASTAYLQINNLKNDDTATYFCARSINYDSDEKWGQGTSVTVSS VL: QIVLTQSPAIMSASLGERVTLTCTASSSVSSSYLHWYQQKPGSSPKLWIYDTSNLASGVPARFSGSGSGTSYSLTISSMEAEDAATYYCHQYHRSQWTFGGGTKLEIK"
  classification: "n"
